- assay-protocol: Rat PK at equimolar dose to Ezogabine (20 mg/kg) in 0.5% methylcellulose
- settings: male jugular vein cannulated rats, dose equimolar to Ezogabine 20 mg/kg, 0.5% methylcellulose in water, 24 hours; analyte the dosed prodrug
Consider the following compounds and their measured AUClast/D readings.
Please make sure the unit comes right after the number.

Below are worked cases with known answers.
[
  {
    "compound": "CCOC(=O)Nc1ccc(NCc2ccc(F)cc2)cc1NC(=O)[C@@H](N)CCCCN [Compound 4]",
    "result": "6.26 ng·h/mL/mg/kg"
  },
  {
    "compound": "CCOC(=O)Nc1ccc(NCc2ccc(F)cc2)cc1NC(=O)C[C@@H](CN)CC(C)C [Compound 28]",
    "result": "83.0 ng·h/mL/mg/kg"
  },
  {
    "compound": "CCOC(=O)Nc1ccc(NCc2ccc(F)cc2)cc1NC(=O)OC(C)OC(=O)C(C)C (stereo not shown) [Compound 3]",
    "result": "0.0136 ng·h/mL/mg/kg"
  }
]

Now for a further compound.
Form field: reported AUClast/D of CCOC(=O)Nc1ccc(NCc2ccc(F)cc2)cc1NC(=O)[C@H](N)CO [Compound 6]
199 ng·h/mL/mg/kg

====

- assay-protocol: Rat PK at equimolar dose to Ezogabine (20 mg/kg) in 0.5% methylcellulose
- settings: rats, equimolar dose to Ezogabine 20 mg/kg
- Procedure: Blood samples were collected at the same time points over 24 hours to generate a concentration time profile. Two male rats were dosed per group. Plasma samples were analyzed by LC/MS/MS and the resulting concentration time profiles and PK parameters are provided.
quantity-name: Exposure of ezogabine (dose normalized AUC) compared with ezogabine itself

[
  {
    "compound": "CCNC(=O)CC[C@H](N)C(=O)Nc1cc(NCc2ccc(F)cc2)ccc1NC(=O)OCC.Cl [Compound 29]",
    "result": "similar"
  },
  {
    "compound": "CCOC(=O)Nc1ccc(NCc2ccc(F)cc2)cc1NC(=O)[C@@H](N)CCCCN [Compound 4]",
    "result": "similar"
  },
  {
    "compound": "CCOC(=O)Nc1ccc(NCc2ccc(F)cc2)cc1NC(=O)[C@H](N)CO [Compound 6]",
    "result": "similar"
  }
]

====

Consider the following compounds and their measured log10 of Cmax/D readings.
- assay-protocol: Rat PK at equimolar dose to Ezogabine (20 mg/kg) in 0.5% methylcellulose
- settings: male jugular vein cannulated rats, dose equimolar to Ezogabine 20 mg/kg, 0.5% methylcellulose in water; analyte the dosed prodrug
Quick note: numbers are log10 of Cmax/D, with ng/mL/mg/kg as the unit.

[
  {
    "compound": "CCOC(=O)Nc1ccc(NCc2ccc(F)cc2)cc1NC(=O)OC(C)OC(=O)C(C)C (centres unmarked)",
    "log10 of Cmax/D": -1.56
  }
]

Form field: reported log10 of Cmax/D of `CCOC(=O)Nc1ccc(NCc2ccc(F)cc2)cc1NC(=O)C[C@@H](CN)CC(C)C`
0.97

Next compound: `CCNC(=O)CC[C@H](N)C(=O)Nc1cc(NCc2ccc(F)cc2)ccc1NC(=O)OCC.Cl`
1.65

Next compound: `CCOC(=O)Nc1ccc(NCc2ccc(F)cc2)cc1NC(=O)[C@@H](N)CCCCN`
0.37

Next compound: `CCOC(=O)Nc1ccc(NCc2ccc(F)cc2)cc1NC(=O)[C@H](N)CO`
2.37
